Target: T1, HCV Core1-169 (HCV-1, UniProt P26664 1-169)
T1 construct: also called recombinant HCV core antigen
T1 sequence: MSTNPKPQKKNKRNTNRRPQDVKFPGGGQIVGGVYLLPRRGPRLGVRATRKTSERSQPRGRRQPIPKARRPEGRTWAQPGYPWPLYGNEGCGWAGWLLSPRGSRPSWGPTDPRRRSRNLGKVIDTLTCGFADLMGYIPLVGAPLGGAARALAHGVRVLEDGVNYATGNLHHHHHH
Experiment: EIA, core1-169 captured by mAb 14-153-229; further: test concentration or dose not given here
Exercise: state measured OD (A492) for each of the binders provided.
Numbers only, in OD.

{"binder": "HCV 208A-605 (antibody, V domains shown) VH: EVQLQQSGPELEKPGASVKISCKTSGYTFTEYAIHWVKQSHGMSLEWIGGINPSNGNAIYNQIFKDKATLTVDRSSSTAYMGLRSLTFGDSGVYFCVRRQLDFFDYWGQGASLTVSS VL: DIVVTQSPASLAVSLGQRATISCRASQSVSTSRYSYLHWYQQKPGQPPKLLIKYASNLESGVPARFSGSGSGTDFTLNIHPVGEEDTATYYCQHSWEFPFTFGSGTKLEIKR", "result_unit": "OD", "OD (A492)": 2.21}
{"binder": "HCV 208A-692 (antibody, V domains shown) VH: QGQMQQSGAELAKPGASVKLSCKTSGFTFSSSYISWLKQKPGQSLEWIAWIFAGTGNTNYNQKFTDKAQLTVDTSSSTAYMQLSSLTTEDSAIYYCAISGTGFTYWGQGTLVTVSA VL: EVLMTQSPLSLPVSLGDQASISCRSSQSLEHSNGNTYLEWFLQRPGQPPKLLIYKVSSRFSGVPDRFSGSGSGTDFTLKISRVEAEDLGVYYCFQGSHVPFTFGSGTKLAIKR", "result_unit": "OD", "OD (A492)": 0.57}
{"binder": "HCV 208B-911 (antibody, V domains shown) VH: QVHLQQPGAELVRPGVSVKLSCKASGYTFTTYSINWMKQRPGQGLEWIGNIYPSTSHTNYNQKFRDKATMTVDKSSSTAYMQLSSPTSEDSAVYYCTINAYSMDYWGQGTSVTVSS VL: QIVLTQSPEIMSASPGEKVTITCSASSSVSFMYWFQQKPGTSPKLWIYITSNLASGVPTRFSGSGSGTSYSLTISRMEAEDAATYYCQQRSSFPYTFGGGTKLEMKR", "result_unit": "OD", "OD (A492)": 0.14}
{"binder": "HCV 208A-207 (antibody, V domains shown) VH: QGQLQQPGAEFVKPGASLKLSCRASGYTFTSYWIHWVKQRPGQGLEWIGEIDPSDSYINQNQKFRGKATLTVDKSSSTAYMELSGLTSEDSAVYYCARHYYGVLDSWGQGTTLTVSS VL: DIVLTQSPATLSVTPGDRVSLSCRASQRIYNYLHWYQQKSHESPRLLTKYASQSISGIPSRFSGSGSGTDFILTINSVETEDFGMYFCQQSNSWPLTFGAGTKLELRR", "result_unit": "OD", "OD (A492)": 0.41}
{"binder": "HCV 208A-159 (antibody, V domains shown) VH: QLQQSGPAQVKPGASVMISCKTSGYTFTENAMHWVKQSHGKSLEWIGGVNPNNGDTIFNQKFKDKAALTVDKSSSTAFMELRSLTSEESTVYYCVRRELDFFDYWGQGTSVTVSS VL: DIVLTQSPASLAVSLGQRATISCRASQSVSTSRYSYVHWYQQKPGQPPKLLIKYAANLESGVPARFSGSGSGTDFTLNIHPVAEEDAAAYYCQHSWEFPFTFGSGTKLEIKR", "result_unit": "OD", "OD (A492)": 1.29}

Batch request: OD (A492) for each of the following binders.
1. HCV 208A-134 (antibody, V domains shown) VH: QGQMQQSGAELAKPGASVKLSCKTSGFTFSSSYISWLKQKPGQSLEWIAWIYAGTGNTNYNQKFTDKAQLTVDTSSSTAYMQLSSLTTEDSAIYYCAISGTGFTYWGQGTLVTVSA VL: EVLMTQSPLSLPVSLGDQASISCRSSQSLEHTNGNTYLEWFLQRPGQPPKLLIYKVSSRFSGVPDRFSGSGSGTDFTLKISRVEAEDLGVYYCFQGSHVPFTFGSGTKLAIKR
2. HCV 208B-327 (antibody, V domains shown) VH: EVQLVESGGGLVKPGGSLKLSCAASGFTFSDSYMYWVRQTPDQRLEWVATISDGGSYTFYPDSVKGRFTISRDNAQNNLYLQMSSLKSEDTAMYYCASPHAGYFGWFAYWGRGTLVTVSA VL: DIVMTQAAFSNPVTPGTSVSISCRSSKSLLHSNGITYLYWYLQKPGQSPQLLIYQMSKIASGVPDRFRSSGSGTDFTLRISRVEAADVGVYYCAQNLELPWTFGGGTKLEIKR
3. HCV 208B-589 (antibody, V domains shown) VH: QVQLQQSGAGLAKPGASVKMSCKASGYTFTANKMHWAKQRPGQGLEWIGYIDPSSGYTEYNHKIQDKATLTADTSSSTAYMQLSSLTFEDSAVYYCTNFAYWGQGTLVTVSA VL: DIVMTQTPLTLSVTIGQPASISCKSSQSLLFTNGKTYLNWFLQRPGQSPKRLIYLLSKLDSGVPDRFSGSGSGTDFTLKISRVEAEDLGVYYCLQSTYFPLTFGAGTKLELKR
4. HCV 208A-638 (antibody, V domains shown) VH: QGQLQQPGAEFVKPGASLKLSCRASGYTFTSYWIHWVKQRPGQGLEWIGEVDPSDSYINQNEKFRGKATLTVDKSSSTAYMQLGSLTSEDSAVYYCARHYYGVLDSWGQGTALTVSS VL: QIVLTQSPTIMSASLGERVTMTCTASSSVSSSYLHWFQQKPGSSPKLWIYSTSNLASGVPPRFSGSGSGTSYSLSISSVEAEDVATYYCLQFHRSPWTFGGGAKLEIKR
5. HCV 208B-1094 (antibody, V domains shown) VH: EVQLQQSGPELVKPGASVKISCKTSGYTFTEYAMHWMKQSHGKSLEWIGGINPTNGDTIYNQRFKDKAKLTVDRSSSTAYMELRSLTSDDSALFYCARRELDYFASWGQGTTLTVSS VL: DIVLTQSPASLIVSLGQTATISCRASQSLSTSRFSYVHWIQQKPGQPPKLLIKYASNLESGVPVRFSGSGSGTDFTLNIHPVEEEDTATYFCQHSWEFPFTFGSGTKLKIKR

0.13
0.11
1.29
2.24
1.51

Cited source for all entries: patent US20170052184A1
